PROPERTY: melting point

>>> result("CCn1c(-c2ccc(OC(=O)N(C)CCOC)cc2)c(C#N)c2ccc(OC)cc21")
"122 to 127 °C"
>>> result("N#Cc1c(-c2ccc(Nc3ncccn3)cc2)n(CC2CC2)c2cc(OCCF)ccc12")
"212 to 213 °C"
>>> result("C[C@@H](OC(=O)Nc1ccc(-c2c(C#N)c3ccc(Oc4ncccc4F)cc3n2C2CC2)cc1)C1CC1")
"154 to 156 °C"
>>> result("C[C@@H](OC(=O)Nc1ccc(-c2c(C#N)c3cc(Oc4ncccc4C#N)ccc3n2C2CCC2)cc1)C1CC1")
"217 to 218 °C"
>>> result("CC(C)OC(=O)Nc1ccc(-c2c(C#N)c3ccc(OCS(C)(=O)=O)cc3n2C2CC2)cc1")
"166 to 187 °C"
>>> result("CC(C)NC(=O)Nc1ccc(-c2c(C#N)c3ccc(N4CCOCC4)cc3n2C2CC2)cc1")
"264 °C"
>>> result("N#Cc1c(-c2ccc(NS(=O)(=O)C3CC3)cc2)n(C2CC2)c2cc(N3CCOCC3)ccc12")
"241 to 243 °C"
>>> result("COc1ccc(Nc2ccc(-c3c(C#N)c4ccc(OC5CCOCC5)cc4n3C3CCC3)cc2)cc1C")
"195 to 201 °C"
>>> result("CCCS(=O)(=O)Nc1ccc(-c2c(C#N)c3ccc(OCCCO)cc3n2C2CCC2)cc1")
"162 to 163 °C"
>>> result("CCn1c(-c2ccc(NC(=O)C3CC3)cc2)c(C#N)c2ccc(OCCNCCN3CCOCC3)cc21")
"96.5 to 100.6 °C"

Answer with reported melting point of CC(OC(=O)Nc1ccc(-c2c(C#N)c3ccc(OCCCCn4ccnc4)cc3n2C2CCC2)cc1)c1ccc(F)cc1 (stereo not shown) 93 to 95 °C

Answer with reported melting point of COCCOc1ccc2c(C#N)c(-c3ccc(NC(=O)O[C@H](C)C4CC4)cc3)n(C3CC3)c2c1 157 to 159 °C

Answer with reported melting point of N#Cc1c(-c2ccc(NS(=O)(=O)C3CC3)cc2)n(C2CCC2)c2cc(N3CCCC3)ccc12 258 to 260 °C

Answer with reported melting point of CC(C)NC(=O)Nc1c(F)cc(-c2c(C#N)c3ccc(Oc4ncccn4)cc3n2C2CCC2)cc1F 236 to 243 °C

Answer with reported melting point of COCCOc1ccc2c(C#N)c(-c3ccc(C(=O)NC4CCCC4)cc3)n(C3CCC3)c2c1 194 to 196 °C

====

Recorded melting point, one value per entry.

Illustrative cases are given below, each with its answer.
>>> result("CCN(CC)C(=O)Nc1ccc(-c2c(C#N)c3ccc(OC)cc3n2CC)cc1 [Compound 1376]")
"165 to 167 °C"
>>> result("CCC(CC)OC(=O)Nc1ccc(-c2c(C#N)c3ccc(OC4CCOCC4)cc3n2C2CCC2)cc1 [Compound 2617]")
"127 to 129 °C"
>>> result("C[C@@H](OC(=O)Nc1ccc(-c2c(C#N)c3ccc(OCCF)cc3n2C2CCC2)cc1)C(F)(F)F [Compound 2879]")
"198 to 200 °C"
>>> result("CCn1c(-c2ccc(NC(=O)NC(C)C)cc2)c(C#N)c2ccc(OCCOC)cc21 [Compound 1405]")
"182 to 185 °C"
>>> result("CCOC(=O)Nc1ccc(-c2c(C#N)c3ccc(OCCOC)cc3n2C2CCC2)cc1 [compound 1397]")
"170 to 171 °C"

Answer with reported melting point of N#Cc1c(-c2ccc(NS(=O)(=O)NCC3CC3)cc2)n(C2CC2)c2cc(Oc3nccnc3Cl)ccc12 [Compound 2949] 181 to 183 °C

Answer with reported melting point of C[C@@H](OC(=O)Nc1ccc(-c2c(C#N)c3ccc(N4CCCCC4)cc3n2CC2CC2)cc1)C1CC1 [Compound 2907] 127 to 132 °C

Answer with reported melting point of C[C@@H](OC(=O)Nc1ccc(-c2c(C#N)c3ccc(Oc4ncccn4)cc3n2C2CCC2)cn1)C(F)(F)F [Compound 3322] 227 to 229 °C

Answer with reported melting point of CC(C)NC(=O)Nc1ccc(-c2c(C#N)c3ccc(Oc4ccc(Cl)nn4)cc3n2C2CCC2)cc1 [Compound 2762] 264 to 269 °C

Answer with reported melting point of Cc1cc(C)cc(CNc2ccc(-c3c(C#N)c4ccc(OC5CCOCC5)cc4n3C3CCC3)cc2)c1 [Compound 3122] 104 to 107 °C

Answer with reported melting point of CCCS(=O)(=O)Nc1ccc(-c2c(C#N)c3ccc(N4CCCC4=O)cc3n2C2CCC2)cc1 [Compound 3198] 279 to 282 °C
